Test: StAR promoter reporter inhibitors, counter-screen for LRH-1 inverse agonist project, cell-based, luminescence, high throughput (AID 651611)
Conditions: StAR promoter luciferase reporter counterscreen, at 3.6 µM, hits give high values
Consider the following compounds; for each one, report its inhibition.
Answers are plain numbers, in %.

Look over these answered cases.
compound	endpoint	observedValue
COc1cccc(C(C)(O)c2nc(-c3cccc(C#N)c3)cs2)c1 (stereo not given)	inhibition	19.6
CC[n+]1ccc(/C=C/c2ccc(N(C)C)cc2)c2ccccc21	inhibition	77.7
CC(C)Cn1c(N)c(C(=O)NCC2CCCO2)c2nc3ccccc3nc21 (stereo not given)	inhibition	23.3
Cc1onc(-c2ccccc2)c1C(=O)NC(=S)NNC(=O)c1ccc(O)cc1O	inhibition	62.8
Cc1nn(Cc2ccc(Cl)cc2)c(C)c1NC(=O)c1noc2c1CCCCC2	inhibition	21
Cc1cccc(NC(=O)c2ccc([N+](=O)[O-])o2)c1C	inhibition	24.6
CC(=O)c1ccc(NC(=O)CSc2nc3[nH]ncc3c(=O)[nH]2)cc1	inhibition	-0.97
C=CS(=O)(=O)N(Cc1ccc(Cl)c(Cl)c1)C[C@@H](O)CO	inhibition	55.4
Cc1ccc[n+](CC(=O)Nc2ccc(Cl)c([N+](=O)[O-])c2)c1	inhibition	9.69
COC(=O)C1=C(CN2CCCc3ccccc32)NC(=O)NC1c1ccc(F)cc1 (stereo not given)	inhibition	71.5

I have 2 compounds here; please give me inhibition for each one.
1. COc1ccc(C(NC(=O)C(C)C)c2ccc3cccnc3c2O)cc1 (stereo not given)
2. COc1cc(/C=N/n2nnnc2N)ccc1OCc1c(C)no[n+]1[O-]

Reply:
[84.5, 9.05]

I have 5 compounds here; please give me inhibition for each one.
1. Cc1cccc(C)c1NC(=O)C(c1ccc(C(F)(F)F)cc1)n1c(=O)c(-c2cc3ccccc3[nH]2)nc2ccccc21 (stereo not given)
2. COC(C(=O)C(O)C(C)O)C1Cc2cc3cc(OC4CC(OC5CC(O)C(O)C(C)O5)C(O)C(C)O4)c(C)c(O)c3c(O)c2C(=O)C1OC1CC(OC2CC(OC3CC(O)C(OC)C(C)O3)C(O)C(C)O2)C(O)C(C)O1 (stereo not given)
3. CCCC(=O)N1CCN(c2ccc(NC(=O)c3ccc([N+](=O)[O-])o3)cc2)CC1
4. CC1C/C(=C/c2ccncc2)C(=O)/C(=C/c2ccncc2)C1 (stereo not given)
5. CCOc1ccc(CCNC(=O)COC(=O)COc2ccc(Br)cc2)cc1OCC

Reply:
13.9
93.6
-1.48
17.3
4.03

I have 3 compounds here; please give me inhibition for each one.
1. CCN(CC)S(=O)(=O)c1cccc(NC(=O)CNc2cccc(S(=O)(=O)N3CCCC3)c2)c1
2. Cc1ccc(-n2nc(C)c(NC(=O)CCl)c2C)cc1
3. CCCOc1ccc(NC(=O)CC2C(=O)N(C)C(=S)N2Cc2ccc3c(c2)OCO3)cc1 (stereo not given)

Reply:
[26.7, 35.8, 6.7]

---

Biological target: Nuclear receptor subfamily 5 group A member 2 (Homo sapiens) (UniProt O00482)
Sequence (O00482 whole entry, looked up): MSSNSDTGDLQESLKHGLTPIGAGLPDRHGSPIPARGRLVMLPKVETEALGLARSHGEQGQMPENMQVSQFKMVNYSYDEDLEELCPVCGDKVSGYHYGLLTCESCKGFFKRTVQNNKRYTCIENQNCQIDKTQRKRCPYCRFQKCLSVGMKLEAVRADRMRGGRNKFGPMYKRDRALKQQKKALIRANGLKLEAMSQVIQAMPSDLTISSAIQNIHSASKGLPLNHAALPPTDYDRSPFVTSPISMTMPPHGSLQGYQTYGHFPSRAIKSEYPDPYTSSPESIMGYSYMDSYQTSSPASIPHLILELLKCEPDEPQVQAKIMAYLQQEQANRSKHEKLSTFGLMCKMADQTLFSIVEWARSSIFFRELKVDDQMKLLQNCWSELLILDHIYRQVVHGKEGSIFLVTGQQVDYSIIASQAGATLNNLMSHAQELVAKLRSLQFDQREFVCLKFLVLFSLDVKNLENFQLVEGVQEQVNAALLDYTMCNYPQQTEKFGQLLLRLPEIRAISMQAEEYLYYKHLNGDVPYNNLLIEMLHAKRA
Experiment: LRH-1 (NR5A2) inverse agonists, retest, confirmation, cell-based, luminescence (AID 651613);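 further: HEK293T cells co-transfected with LRH-1 and StAR promoter luciferase reporter; 0% = vehicle wells and 100% = parental cells lacking receptor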
Settings: cell-based LRH-1 luciferase reporter, inverse agonism; at 3.6 µM
Active and inactive are the calls of the source. Cut-off read from the data, not from the text of the source: active = inhibition above about 42%; inactive = the rest.
Bench note: report the call from active, inactive

Some solved cases for reference:
molecule	className
O=C(Nc1ccc2oc(-c3ccccc3F)nc2c1)c1ccc([N+](=O)[O-])o1	active
Cc1ccc2occ(/C=N/NC(=O)c3ccccc3O)c(=O)c2c1	inactive

Query: Dear all, I need the recorded test outcome for NC(=O)C1CCN(C(=O)COc2ccc3c4c(c(=O)oc3c2)CCCC4)CC1 , thank you.
Reply: active

Query: Dear all, I need the recorded test outcome for CCn1c(=O)oc2cc(NC(=O)CCl)ccc21 , thank you.
Reply: active

---

Experiment: TR-FRET optical interference artefacts, confirmation, artefact control for LEDGF/p75-dependent integration inhibitor project, biochemical, HIV-1 IN multimerization (AID 1053135);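 further: 0% = integrase with antibodies and DMSO and 100% = antibodies without integrase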
Details: TR-FRET optical interference counterscreen, at 7.7 µM, hits give high values
This is one part of the list. Calls of active or inactive are those of the source.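 How the source made its calls: active means inhibition above the mean over all tested compounds plus 3 SD, which no compound reached; inactive means the rest.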
Consider the following compounds; for each one, report its inhibition.

Look over these answered cases.
compound	inhibition
COc1ccc(S(=O)(=O)/N=C2\C=C(NS(=O)(=O)c3ccccc3)C(=O)c3ccccc32)cc1	10% (inactive)
COc1ccc(Cn2cc(CN3CCS(=O)(=O)N(Cc4ccc(-c5cccc(Cl)c5)cc4)C(C)C3=O)nn2)cc1 (stereo not given)	13.6% (inactive)
COc1ccccc1C1C(C#N)=C(N)Oc2c1c(-c1ccccc1)nn2-c1ccccc1 (stereo not given)	-4.34% (inactive)
COc1ccc(C2CC(c3cccs3)=NN2C(=O)COC(=O)c2cc3ccccc3cc2O)cc1OC (stereo not given)	1.12% (inactive)

Query: Query (compound): COc1ccc(NC(=O)C(NC(C)=O)C(=O)NCc2ccccc2Cl)cc1 (stereo not given) ; field requested: inhibition
Reply: 1.86% (inactive)

---

Assay: VP16 transactivation reporter inhibitors, counter-screen for LRH-1 inverse agonist project, cell-based, luminescence, high throughput (AID 651615)
Conditions: Gal4-VP16 luciferase reporter cells, at 3.6 µM
Calls of active or inactive are those of the source. Cut-off read from the data, not from the text of the source: active = inhibition above about 33%; inactive = the rest.
Bench note: report the call from active, inactive

compound	className
O=C(CN1CCN(S(=O)(=O)c2cc(Cl)ccc2Cl)CC1)Nc1ccc2c(c1)OCCO2	inactive
O=C1c2cc(F)ccc2-n2c1nc1ccccc1c2=O	active

Query: Dear all, I need the recorded test outcome for COc1ccc(C2=Nn3c(nnc3-c3ccccc3OC)SC2)cc1OC1CCOC1 (stereo not given) , thank you.
Reply: inactive

Query: Dear all, I need the recorded test outcome for Cc1c(C#N)c(O)n(CCO)c(=O)c1N=Nc1ccccc1 , thank you.
Reply: inactive

Query: Dear all, I need the recorded test outcome for O=C(c1ccccc1)c1c2c(cc3sc4ccccc4[n+]13)-c1cccc3cccc-2c13 , thank you.
Reply: active

Query: Dear all, I need the recorded test outcome for OCCCNc1cc(-c2ccnc(Nc3cccc(Cl)c3)n2)ccn1 , thank you.
Reply: active

Query: Dear all, I need the recorded test outcome for NS(=O)(=O)c1ccc(Sc2nc3ccccc3s2)c([N+](=O)[O-])c1 , thank you.
Reply: active

Query: Dear all, I need the recorded test outcome for Cc1c(P(=S)(c2ccccc2)c2ccccc2)[n+]2ccccc2n1C/C=C/c1ccccc1 , thank you.
Reply: active

Query: Dear all, I need the recorded test outcome for CCCCCCCCCCOC(=O)Cn1c(COc2ccccc2C)[n+](C)c2ccccc21 , thank you.
Reply: active

Query: Dear all, I need the recorded test outcome for COc1ccc(C(=O)NCCN(C)C)c2nc3ccccc3cc12 , thank you.
Reply: active

---

System: transactivating tegument protein VP16 (Human herpesvirus 1), Gal4-VP16 luciferase reporter
Test: VP16 transactivation inhibitors, counter-screen for SRC3 inhibitor project, cell-based, luminescence, high throughput (AID 588794)
Conditions: mammalian cells, VP16-driven luciferase reporter luminescence; at 3.6 µM
Active and inactive are the calls of the source. No stated cut-off is given here; in the data, active means inhibition above about 30%; inactive means the rest. Numbered stars: 1 amine (or outer) side, 2 acyl side, 3 side chain; on linkers, the order of the positions; unused ones are H or OH. Bridge positions count the residues as written; N and C are the ends. Square brackets hold non-standard residues; d marks the D form. Peptide text beside a SMILES is read from it. ξ: configuration not given here. X1 = CC[C@H](CCC[C@@H](O)[C@@H](C)C(=O)O[C@H](C)[C@@H](C)C/C=C(C)/C(=C\C(=O)[*:1])OC)O[*:2]; NMeξIle = CC[C@H](C)C(NC)C(=O)O; NMeV = CN[C@H](C(=O)O)C(C)C; NMeS = CN[C@@H](CO)C(=O)O
Bench note: report the call from t for active, f for inactive

Some solved cases for reference:
molecule	className
CC1=C(C(=O)OCc2ccc3c(c2)OCO3)C(c2ccccc2)NC(=O)N1 (stereo not drawn)	t
CC[C@@H]1CCC[C@@H](O)[C@@H](C)C(=O)O[C@H](C)[C@@H](C)C/C=C(C)/C(OC)=C\C(=O)N(C)C([C@@H](C)CC)C(=O)N(C)[C@@H](C(C)C)C(=O)N(C)[C@@H](COC)C(=O)N2CCC[C@H]2C(=O)N(C)[C@@H](C(C)C)C(=O)N2CCC[C@H]2C(=O)O1 (stereo partly drawn) ([NMeξIle][NMeV][NMeS](Me)P[NMeV]P; linker N-C via X1)	t
O=C(N/N=C\c1cc(Br)ccc1O)c1ccc(S(=O)(=O)N2CCCCC2)cc1	t

Note: attention shifts to another entry.
Query: Dear all, I need the recorded test outcome for Cc1cccc[n+]1CC(=O)/C=C1\N(C)c2ccccc2C1(C)C , thank you.
Reply: f

---

Test: VP16 transactivation inhibitors, counter-screen for SRC1 inhibitor project, cell-based, luminescence, high throughput (AID 588824)
Conditions: cell-based VP16 transactivation luciferase luminescence; at 3.6 µM
Active and inactive are the calls of the source. Rule as the data show it: active = inhibition above about 25%; inactive = the rest.
Bench note: report the call from yes = active, no = inactive

molecule	className
c1ccc(-c2cn(-c3ccccc3)c3ncnc(N4CCCCC4)c23)cc1	no
C=CCc1ccccc1OCC(=O)N/N=C/c1ccc(OC(C)=O)cc1OC(C)=O	no
CCCCc1ccc(NC(=O)c2ccc(N(C)S(C)(=O)=O)cc2)cc1	yes
Oc1ccc2ccccc2c1N=Nc1nccs1	yes
Cc1cc(=O)[nH]c(N/N=C/c2cc(C)n(CC(F)(F)F)c2C)n1	yes

Query: Dear all, I need the recorded test outcome for Cc1[nH]nc2ncc(C(=O)c3ccccc3O)cc12 , thank you.
Reply: yes
